System: BT-549 breast
Measurement notes: NCI tumour cell line growth inhibition, 48 h
Below, each entry is listed with its recorded TGI.

// solved cases for TGI follow
1) NCCSS(=O)(=O)CCN :: > 100 µM
2) O=C(O)c1ccc(C(=O)c2ccccc2)c(C(=O)O)c1 :: > 100 µM
3) CCCCCCCCCCCCCCCCCC1=NCCN1CCOC1=C(Cl)C(=O)c2ccccc2C1=O :: 6.12 µM

Exam item: Recorded TGI of O=C1OC(=O)C(=C\c2ccc3c(c2)OCO3)/C1=C/c1ccc2c(c1)OCO2 , please.
Marked response: > 100 µM

Exam item: Item: CO/N=C(\COc1ccc2c(c1)[nH]c1ccccc12)c1ccc(F)cc1
Marked response: > 100 µM

Exam item: Item: COc1ccc(CC2(O)C3CC4CCC2C4C3)cc1 (stereo unspecified)
Marked response: > 100 µM

Exam item: Item: Cc1ccc(/C=N\NC(=O)c2[nH]c3ccc(F)cc3c2-c2ccccc2)cc1
Marked response: 7.29 µM
